# Tested on: MOLT-4 leukemia
# Assay Name: NCI tumour cell line growth inhibition, 48 h
This listing pairs compounds with measured TGI.

Known TGI results, listed for orientation:
CC1CC(=O)c2c(ccc3c2C(=O)c2cccc(O)c2C3=O)C1 (stereo unspecified)	9.57 µM
Cc1cc(C)nc(NS(=O)(=O)c2ccc(NC(=O)c3cccc4c(N)c5ccccc5nc34)cc2)n1	> 100 µM
O=c1[nH]cnc2c1ncn2CCCCO	> 100 µM
COC(=O)[C@@H]1[C@H](O)CC[C@H]2[C@@]1(C)CC[C@@H](C)[C@]2(COC(C)=O)CC(=O)c1ccoc1	> 50 µM
C=CC[C@H]1[C@H](O[Si](C)(C)C(C)(C)C)C=CC(=O)[C@@H]1CC(=O)OCC	48 µM
OC1c2ccccc2C2C(O)c3ccccc3C12 (stereo unspecified)	> 100 µM
CC/C(=C\c1ccc(Cl)c(Cl)c1)[N+](=O)[O-]	2.01 µM
CCOC(=O)/C(=N/Nc1ccc(Cl)cc1)N1C(=S)C=C(C)NN(C)C1=S	> 100 µM
COc1ccc(C2C(Cl)C(=O)N2NC(=O)c2ccccc2O)cc1OC (stereo unspecified)	> 100 µM
Cc1ccc(S(=O)(=O)Nc2cc(Sc3ccccc3)c(O)c3ccccc23)cc1	5.62 µM

Identify the reported TGI for the following entry. CN(C)C(=S)SCC(N)=O
> 100 µM

Determine its reported TGI: Cc1nc(Nc2nc3ccccc3[nH]2)[nH]c(=O)c1CCO
> 100 µM

Give a short answer stating reported TGI for O=C1c2c(ccc3c2CCCC3)CC1Cc1ccc2c(c1)CCCC2 (stereo unspecified) .
> 100 µM

Give a short answer stating reported TGI for c1cc(C[S+]2CCCC2)oc1C[S+]1CCCC1 .
> 100 µM

Supply measured TGI of COc1cc(C2S/C(=C/c3ccccc3)C(=O)N2c2ccccc2Cl)cc(OC)c1OC (stereo unspecified) in your reply.
> 100 µM

====

# Tested on: SF-539 CNS
# Assay Name: NCI tumour cell line growth inhibition, 48 h
Observation Type: TGI

These recorded examples may help you get a feel for the data.
Cc1cc(-c2ccc(C(=O)C(c3ccccc3)(c3ccccc3)c3ccccc3)[nH]2)on1	> 100 µM
COC(=O)CCC(C)[C@H]1CCC2C3C(C[C@H](OC(C)=O)[C@@]21C)[C@@]1(C)CCC2(C[C@H]1C[C@H]3OC(C)=O)OOC1(CCCCC1)OO2 (stereo partly specified)	> 100 µM
c1ccc(CSC(SCc2ccccc2)c2ccc3c(c2)OCO3)cc1	> 10 µM
O=CN1N=C(c2ccc(Nc3ccnc4cc(Cl)ccc34)cc2)CC1c1ccc(Cl)cc1 (stereo unspecified)	> 100 µM
NCCSC(C[N+](=O)[O-])c1ccccc1Cl (stereo unspecified)	5.49 µM
NS(=O)(=O)c1ccc(NC(=O)c2cccc3c(Nc4ccc(S(N)(=O)=O)cc4)c4ccccc4nc23)cc1	> 100 µM
CC1=NN(c2ccccc2)C(=O)C1N=Nc1ccc(S(N)(=O)=O)cc1 (stereo unspecified)	> 100 µM
Cc1nc(N(CCO)CCO)c2sc(=S)n(-c3ccccc3)c2n1	> 100 µM
COC(=O)C1(C)OC(C)=NC1(C(=O)OC)C(=O)OC (stereo unspecified)	> 100 µM
O=C(Cn1c2ccccc2c2ccncc21)N/N=C\c1ccc2ccccc2c1	28.7 µM

Complete the entry with TGI for CCOC(=O)Oc1ccc2c(c1)c(=O)c1c(NCCCN(CC)CC)ccc3nnn2c31
19 µM

Complete the entry with TGI for CSc1nc(-c2ccc(Cl)cc2)c(C#N)c(=O)[nH]1
> 100 µM

Report measured TGI; entry is O=C(O)C1CC2CC(=O)C1C2 (stereo unspecified)
> 100 µM

Give TGI for COc1ccc(N2C(=O)C3c4[nH]c5ccc(OCc6ccccc6)cc5c4C4CCC(C(C)C)CC4C3C2=O)cc1 (stereo unspecified)
23.5 µM

====

# System: K-562 leukemia
# Assay Name: NCI tumour cell line growth inhibition, 48 h
Observation Type: TGI

Study these solved cases before continuing.
COc1cc(-c2oc3c(OC)c(O)cc(O)c3c(=O)c2OC)ccc1O	> 100 µM
Cc1ccc(-n2cc(-c3ccc(Cl)cc3)c(C#N)c2N)cc1	47.9 µM
COc1cc(/C=C\c2ccc(Cl)cc2)cc(OC)c1OC	> 44.2 µM
CCOC(=O)/C(=N/Nc1ccc(Cl)cc1)N1C(=S)C=C(C)NN(C)C1=S	> 100 µM
C=CCC1C2CCC(O[Si](C(C)C)(C(C)C)C(C)C)(C(C(=O)OC)C2)C1O (centres undefined)	> 100 µM
O=C1COCCN1c1ccc(NCc2cn(C(=O)c3ccc(Cl)cc3)c3ccccc23)cc1	17 µM
CC(=O)Nc1nnc(S(=O)(=O)NC(=S)Nc2ccc(Cl)cc2)s1	> 100 µM
Cc1cccc(N=C2NC(=O)C(CC(=O)Nc3ccccc3Cl)S2)c1 (centres undefined)	> 100 µM

Now for another entry.
Hello, please tell me recorded TGI for this one: C=CC[C@H]1[C@H](O[Si](C)(C)C(C)(C)C)C=CC(=O)[C@@H]1CC(=O)OCC
20.4 µM

====

Entries and their TGI values follow.
# Test system: LXFL 529 NSCLC
# Assay Name: NCI tumour cell line growth inhibition, 48 h

The cases that follow already have their TGI on record.
O=C(O)c1cc(=O)c2cc(C(=O)c3cccs3)c(Cl)c(Cl)c2o1	> 100 µM
CCOC(=O)C(=O)Nc1cccc(C)c1C	> 100 µM
COc1cc(Cc2ccc3c(c2C#N)N(C)c2ccccc2S3)cc(OC)c1OC	> 100 µM
O=C(CC(=O)C1CCOC1=O)C(=O)Nc1ccc(Cl)cc1 (stereo unspecified)	> 100 µM

Param request: TGI | system LXFL 529 NSCLC | item O=C1Cc2ccccc2CCc2ccsc21
> 100 µM

With LXFL 529 NSCLC as the test system, provide measured TGI for this compound: O=c1cc(-c2ccc(O)cc2)oc2cc(O)cc(O)c12
37.3 µM

# lookup: LXFL 529 NSCLC TGI, key = O=C(O)CN=c1c2ccccc2n(O)c2ccccc12
> 100 µM

Provide measured TGI on LXFL 529 NSCLC for CC(C)c1cccc(C(C)C)c1NC(=O)C(=O)C1SC(=S)NC1=O (stereo unspecified) please.
> 100 µM

# assay system LXFL 529 NSCLC: give TGI of CCSC(=O)C1(C)OC2CCCCC2C1=O (stereo unspecified)
> 100 µM

Fill in TGI for CC1(C)N=C(Oc2ccccc2)n2nccc2N1 tested with LXFL 529 NSCLC.
> 100 µM

Fill: TGI (LXFL 529 NSCLC) for this compound O=c1[nH]c2c(c3ccccc13)CCc1ccccc1-2
> 100 µM

====

Let's look at some compounds and their measured TGI.
# System: NCI/ADR-RES ovarian
# Assay Name: NCI tumour cell line growth inhibition, 48 h

Consider the compound Cn1c(=O)sc2cc(C(=S)N3CCN(c4ccccc4)CC3)ccc21 . State its measured TGI.
> 100 µM

# return recorded TGI for entry BrC1=CN2C[n+]3cc(Br)c4ccccc4c3N=C2c2ccccc21
> 100 µM

Entry COC1OC(C(C)O)C2OC(C)(C)OC12 (stereo unspecified) needs its TGI filled in; supply it.
> 100 µM

Look up and state reported TGI for Cn1c2ccccc2c2[nH]c3ccccc3c(=O)c21
> 100 µM

For the compound CC(=O)C1C(=O)C(=O)N(c2ccc(Br)cc2)C1=O (stereo unspecified) , report TGI.
> 100 µM

Could you please provide reported TGI for C[N+]12CCCCC1C(CN1C(=O)c3ccccc3C1=O)CCC2 (stereo unspecified) ? Thanks!
> 100 µM

Please report TGI for the following compound: CN(C)C(=O)Oc1ccc(C(=S)Nc2ccccc2)cc1Br
63.9 µM

Tell me TGI reported for CN(CCCN(C)CCC1CCCCC1)CCC1CCCCC1
20.1 µM

Give the value of TGI reported for the following: C#CC(O)Cc1ccc(OC)c2occc12 (stereo unspecified)
> 100 µM

Return value of TGI for input c1ccc(CSC(SCc2ccccc2)c2ccc3c(c2)OCO3)cc1 , no commentary.
> 10 µM

Please report TGI for the following compound: Cc1ccc([N+](=O)[O-])c2c(NCCC[N+](C)(C)[O-])ccnc12
> 100 µM

Read off the recorded TGI for COc1cc2c(cc1OCCCCN1CCN(CCCCOc3cc4c(cc3OC)C(=O)N3CCC[C@H]3C=N4)CC1)N=C[C@@H]1CCCN1C2=O
16.5 µM

Give me measured TGI, please, for this compound: Nc1ccccc1C#C/C=C\C#Cc1ccccc1F
6.73 µM

Provide one value: measured TGI of CC(Nc1n[nH]c(=O)c2c1nnn2Cc1ccccc1)c1ccccc1 (stereo unspecified)
> 100 µM

Find the measured TGI of NCCC1([N+](=O)[O-])CCNCC1 and report it.
> 100 µM

Read off the recorded TGI for CCOP(=O)(OCC)C(=C1C=C(C(C)(C)C)C(=O)C(C(C)(C)C)=C1)P(=O)(OCC)OCC
> 10 µM

Just for reference, PubChem BioAssay (NCI) is where these values come from.
